For each entry below, report its IC50 value.
Molecular target: SYK (Homo sapiens, UniProt P43405)
Test: SYK inhibition assay: SYK-mediated phosphorylation of FAM-labeled substrate (Caliper microfluidic)
Assay type: biochemical
Settings: read-out: SYK Inhibition (pIC50) (converted)
Response body: numeric value in nM, unit text excluded.

Short answer for Cn1cc(-c2nc(N[C@@H]3CCCC[C@@H]3N)nc3c2C(=O)NC3)cn1 [Example 14] : IC50 was 126

Short answer for Cc1cc(-c2nc(N[C@@H]3CCOC[C@@H]3N)c(F)c3c2C(=O)NC3)sn1 [Example 132] : IC50 was 3.98

Short answer for Cn1cc(-c2nc(N[C@@H]3CCOC[C@@H]3N)cc3c2C(=O)NC3)cn1 [Example 27] : IC50 was 39.8

Short answer for N[C@H]1CCCC[C@H]1Nc1nc(-c2cnn(C(F)F)c2)c2c(c1F)CNC2=O [Example 62] : IC50 was 10

Short answer for Cc1cccc(Nc2nc(N[C@@H]3CCCC[C@@H]3N(C)C)nc3c2C(=O)NC3)c1 [Example 37] : IC50 was 1000

Short answer for COC[C@H](N)CNc1nc(Nc2cccc(C)c2)c2c(c1F)CNC2=O [Example 79] : IC50 was 20

====

Target: SYK (Homo sapiens, UniProt P43405)
Experiment: SYK inhibition assay: SYK-mediated phosphorylation of FAM-labeled substrate (Caliper microfluidic)
Type: biochemical
Conditions: read-out: SYK Inhibition (pIC50) (converted)
For each entry below, report its IC50 value.

Short answer for CC(C)C[C@@H](Nc1nc(-c2cnn(C3CC3)c2)c2c(c1F)CNC2=O)C(N)=O : IC50 was 31.6 nM

Short answer for C=CC(=O)c1c(N[C@@H]2CCCC[C@@H]2N)nc(Nc2cccc(C)c2)c2c1CNC2=O : IC50 was 3160 nM

Short answer for Cc1ccc(-c2nc(N[C@@H]3CCOC[C@@H]3N)c(F)c3c2C(=O)NC3)s1 : IC50 was 7.94 nM

Short answer for CC(C)C[C@@H](Nc1nc(-c2ccns2)c2c(c1F)CNC2=O)C(N)=O : IC50 was 15.8 nM

Short answer for CC(C)Cn1cc(-c2nc(N[C@@H]3CCCC[C@@H]3N)nc3c2C(=O)NC3)cn1 : IC50 was 1000 nM

Short answer for N[C@H]1CCCC[C@H]1Nc1nc2c(c(-c3cnn(-c4ccc(F)cc4)c3)n1)C(=O)NC2 : IC50 was 158 nM

Short answer for CC(C)C[C@@H](Nc1cc2c(c(-c3cnn(C)c3)n1)C(=O)NC2)C(N)=O : IC50 was 25.1 nM

Short answer for N[C@H]1CCCC[C@H]1Nc1nc2c(c(-c3ccccc3)n1)C(=O)NC2 : IC50 was 3160 nM

Short answer for Cc1cccc(Nc2nc(N[C@@H]3CCOC[C@@H]3N)cc3c2C(=O)NC3)c1 : IC50 was 3.98 nM

Short answer for CC(C)C[C@@H](Nc1nc(-c2ccco2)c2c(c1F)CNC2=O)C(N)=O : IC50 was 200 nM

Short answer for N[C@@H]1[C@H](Nc2nc(-c3cnn(C4CC4)c3)c3c(c2F)CNC3=O)CCCC1(F)F (relative stereo) : IC50 was 158 nM

Short answer for Cc1cccc(Nc2nc(NC3CCCCC3)nc3c2C(=O)NC3)c1 : IC50 was > 20000 nM

Short answer for N[C@H]1CCCC[C@H]1Nc1nc(-c2ccsc2)c2c(c1F)CNC2=O : IC50 was 2.51 nM

Short answer for CC(C)C[C@@H](Nc1nc(-c2cnn3ccccc23)c2c(c1F)CNC2=O)C(N)=O : IC50 was 5.01 nM

Short answer for CCOC[C@H](N)CNc1nc(Nc2cccc(C)c2)c2c(c1F)CNC2=O : IC50 was 15.8 nM

Short answer for Cc1cccc(Nc2nc(N3CCCC(N)C3)nc3c2C(=O)NC3)c1 (centres unmarked) : IC50 was 2000 nM

Short answer for Cn1cc(-c2nc(N3CCC[C@H](N)C3)c(F)c3c2C(=O)NC3)cn1 : IC50 was 200 nM
